tested on: CCRF-CEM; test: In vitro antitumor activity in CCRF-CEM culture of human leukemic lymphocytes; format: functional; settings: read-out: ID50 (the source's name)
readout: IC50 (nM)
One number for each entry, in nM.

# example entries with known answers
[
  {
    "compound": "COc1cccc2c1C(=O)c1c(O)c3c(c(O)c1C2=O)C[C@@](O)(C(=O)COC(=O)CCC(NC(C)=O)C(N)=O)C[C@@H]3OC1CC(NC(=O)C(F)(F)F)C(O)C(C)O1 (some centres not stated)",
    "measurement": 120
  },
  {
    "compound": "COc1cccc2c1C(=O)c1c(O)c3c(c(O)c1C2=O)C[C@@](O)(C(=O)COC(=O)C(Cc1ccccc1)NC(C)=O)C[C@@H]3OC1CC(NC(=O)C(F)(F)F)C(O)C(C)O1 (some centres not stated)",
    "measurement": 90
  },
  {
    "compound": "COc1cccc2c1C(=O)c1c(O)c3c(c(O)c1C2=O)C[C@@](O)(C(=O)COC(=O)C(CCSC)NC(C)=O)C[C@@H]3OC1CC(NC(=O)C(F)(F)F)C(O)C(C)O1 (some centres not stated)",
    "measurement": 830
  },
  {
    "compound": "COc1cccc2c1C(=O)c1c(O)c3c(c(O)c1C2=O)C[C@@](O)(C(=O)COC(=O)CNC(=O)c1ccccc1)C[C@@H]3OC1CC(NC(=O)C(F)(F)F)C(O)C(C)O1 (some centres not stated)",
    "measurement": 120
  },
  {
    "compound": "COc1cccc2c1C(=O)c1c(O)c3c(c(O)c1C2=O)C[C@@](O)(C(=O)COC(=O)C(C)NC(C)=O)C[C@@H]3OC1CC(NC(=O)C(F)(F)F)C(O)C(C)O1 (some centres not stated)",
    "measurement": 150
  },
  {
    "compound": "COc1cccc2c1C(=O)c1c(O)c3c(c(O)c1C2=O)C[C@@](O)(C(=O)COC(=O)C1CCCN1C(C)=O)C[C@@H]3OC1CC(NC(=O)C(F)(F)F)C(O)C(C)O1 (some centres not stated)",
    "measurement": 300
  }
]

We now examine a further compound.
Hello, I am looking for reported IC50 with CCRF-CEM for CCCCC(=O)OCC(=O)[C@]1(O)Cc2c(O)c3c(c(O)c2[C@@H](OC2CC(NC(=O)C(F)(F)F)C(O)C(C)O2)C1)C(=O)c1c(OC)cccc1C3=O (some centres not stated) . Could you help?
230

Cited source: ChEMBL document CHEMBL1123314
